Reference source: patent US7956053B2

List of inhibition at 10 µM values.
- study_target: c-Abl (Homo sapiens, UniProt P00519)
- Construct: The His-tagged kinase domain of c-Abl is cloned and expressed in the baculovirus/Sf9 system; His; made in house; host or cells: baculovirus/Sf9
- Sequence (P00519 242-493 limits assumed): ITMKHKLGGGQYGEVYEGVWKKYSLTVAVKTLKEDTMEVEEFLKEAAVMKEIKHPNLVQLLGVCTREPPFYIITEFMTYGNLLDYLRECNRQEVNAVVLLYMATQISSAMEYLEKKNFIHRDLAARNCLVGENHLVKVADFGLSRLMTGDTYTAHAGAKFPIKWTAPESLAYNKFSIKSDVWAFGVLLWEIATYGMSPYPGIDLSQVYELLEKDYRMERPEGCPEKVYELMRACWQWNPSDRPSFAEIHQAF
- experiment: Test for activity against c-Abl protein tyrosine kinase (filter binding assay)
- Type: biochemical
parameter_measured: inhibition at 10 µM (%)

# compound, study_target, measurement_units, endpoint_result
data = [
    ("CC(=O)Nc1ccc(NC(=O)c2ccc(C)c(Nc3nccc(-c4cccnc4)n3)c2)cc1 [Example 22]", "c-Abl (Homo sapiens, UniProt P00519)", "%", 59),
    ("COc1ccc(N2CCN(C(=O)c3ccc(C)c(Nc4nccc(-c5cccnc5)n4)c3)CC2)cc1 [Example 36]", "c-Abl (Homo sapiens, UniProt P00519)", "%", 57),
    ("Cc1ccc(C(=O)NCc2ccc(S(C)(=O)=O)cc2)cc1Nc1nccc(-c2cccnc2)n1 [Example 24]", "c-Abl (Homo sapiens, UniProt P00519)", "%", 80),
    ("CCOC(=O)Cc1ccc(NC(=O)c2ccc(C)c(Nc3nccc(-c4cccnc4)n3)c2)cc1 [Example 62]", "c-Abl (Homo sapiens, UniProt P00519)", "%", 59),
    ("COc1ccc(CNC(=O)c2ccc(C)c(Nc3nccc(-c4cccnc4)n3)c2)cc1 [Example 8]", "c-Abl (Homo sapiens, UniProt P00519)", "%", 70),
    ("Cc1ccc(C(=O)NCc2ccc(N(C)C)cc2)cc1Nc1nccc(-c2cccnc2)n1 [Example 25]", "c-Abl (Homo sapiens, UniProt P00519)", "%", 44),
    ("Cc1ccc(C(=O)NCCN(C(C)C)C(C)C)cc1Nc1nccc(-c2cccnc2)n1 [Example 66]", "c-Abl (Homo sapiens, UniProt P00519)", "%", 67),
    ("Cc1ccc(C(=O)Nc2cccc(C(=O)c3ccccc3)c2)cc1Nc1nccc(-c2cccnc2)n1 [Example 60]", "c-Abl (Homo sapiens, UniProt P00519)", "%", 79),
    ("Cc1ccc(C(=O)NCc2ccncc2)cc1Nc1nccc(-c2cccnc2)n1 [Example 6]", "c-Abl (Homo sapiens, UniProt P00519)", "%", 51),
    ("Cc1ccc(C(=O)NCCCn2ccnc2)cc1Nc1nccc(-c2cccnc2)n1 [Example 17]", "c-Abl (Homo sapiens, UniProt P00519)", "%", 54),
    ("Cc1ccc(C(=O)NCC2CC2)cc1Nc1nccc(-c2cccnc2)n1 [Example 18]", "c-Abl (Homo sapiens, UniProt P00519)", "%", 56),
    ("Cc1ccc(C(=O)N[C@H]2CCCCNC2=O)cc1Nc1nccc(-c2cccnc2)n1 [Example 14]", "c-Abl (Homo sapiens, UniProt P00519)", "%", 49),
    ("Cc1ccc(C(=O)N2CCN(C3CCCC3)CC2)cc1Nc1nccc(-c2cccnc2)n1 [Example 40]", "c-Abl (Homo sapiens, UniProt P00519)", "%", 65),
    ("COc1ccc(NC(=O)c2ccc(C)c(Nc3nccc(-c4cccnc4)n3)c2)c(C)c1 [Example 23]", "c-Abl (Homo sapiens, UniProt P00519)", "%", 90),
    ("Cc1ccc(C(=O)Nc2ccc(CN3CCN(C)CC3)cc2)cc1Nc1nccc(-c2cccnc2)n1 [Example 2]", "c-Abl (Homo sapiens, UniProt P00519)", "%", 97),
    ("Cc1ccc(C(=O)N2CCN(c3ccccn3)CC2)cc1Nc1nccc(-c2cccnc2)n1 [Example 3]", "c-Abl (Homo sapiens, UniProt P00519)", "%", 66),
    ("CCOC(=O)N1CCN(C(=O)c2ccc(C)c(Nc3nccc(-c4cccnc4)n3)c2)CC1 [Example 43]", "c-Abl (Homo sapiens, UniProt P00519)", "%", 37),
    ("Cc1ccc(C(=O)N2CCN(CC(=O)N3CCCC3)CC2)cc1Nc1nccc(-c2cccnc2)n1 [Example 42]", "c-Abl (Homo sapiens, UniProt P00519)", "%", 32),
    ("Cc1ccc(C(=O)N2CCN(Cc3ccccc3)CC2)cc1Nc1nccc(-c2cccnc2)n1 [Example 39]", "c-Abl (Homo sapiens, UniProt P00519)", "%", 64),
    ("CCOC(=O)C1CCN(Cc2cccc(NC(=O)c3ccc(C)c(Nc4nccc(-c5cccnc5)n4)c3)c2)CC1 [Example 64]", "c-Abl (Homo sapiens, UniProt P00519)", "%", 56),
    ("Cc1ccc(C(=O)N[C@@H](Cc2ccccc2)C(=O)OC(C)(C)C)cc1Nc1nccc(-c2cccnc2)n1 [Example 32]", "c-Abl (Homo sapiens, UniProt P00519)", "%", 90),
    ("Cc1ccc(C(=O)NCc2ccc(S(N)(=O)=O)cc2)cc1Nc1nccc(-c2cccnc2)n1 [Example 29]", "c-Abl (Homo sapiens, UniProt P00519)", "%", 78),
    ("Cc1ccc(C(=O)N2CCc3ccccc3C2)cc1Nc1nccc(-c2cccnc2)n1 [Example 44]", "c-Abl (Homo sapiens, UniProt P00519)", "%", 75),
    ("Cc1ccc(C(=O)NCCCN2CCCC2=O)cc1Nc1nccc(-c2cccnc2)n1 [Example 20]", "c-Abl (Homo sapiens, UniProt P00519)", "%", 56),
    ("Cc1ccc(C(=O)NCC(c2ccccc2)c2ccccc2)cc1Nc1nccc(-c2cccnc2)n1 [Example 49]", "c-Abl (Homo sapiens, UniProt P00519)", "%", 72),
    ("CCOC(=O)CN(Cc1ccccc1)C(=O)c1ccc(C)c(Nc2nccc(-c3cccnc3)n2)c1 [Example 47]", "c-Abl (Homo sapiens, UniProt P00519)", "%", 39),
    ("Cc1ccc(C(=O)N2CCC(O)(c3ccccc3)CC2)cc1Nc1nccc(-c2cccnc2)n1 [Example 59]", "c-Abl (Homo sapiens, UniProt P00519)", "%", 75),
    ("COCCNC(=O)c1ccc(C)c(Nc2nccc(-c3cccnc3)n2)c1 [Example 19]", "c-Abl (Homo sapiens, UniProt P00519)", "%", 41),
    ("COC(=O)CCNC(=O)c1ccc(C)c(Nc2nccc(-c3cccnc3)n2)c1 [Example 28]", "c-Abl (Homo sapiens, UniProt P00519)", "%", 73),
    ("Cc1ccc(C(=O)NC(c2ccccc2)c2ccccc2)cc1Nc1nccc(-c2cccnc2)n1 [Example 51]", "c-Abl (Homo sapiens, UniProt P00519)", "%", 92),
    ("Cc1ccc(NC(=O)c2ccc(C)c(Nc3nccc(-c4cccnc4)n3)c2)nc1 [Example 58]", "c-Abl (Homo sapiens, UniProt P00519)", "%", 40),
    ("Cc1ccc(C(=O)NC2CCCCC2)cc1Nc1nccc(-c2cccnc2)n1 [Example 13]", "c-Abl (Homo sapiens, UniProt P00519)", "%", 78),
    ("Cc1ccc(C(=O)NCCN2CCOCC2)cc1Nc1nccc(-c2cccnc2)n1 [Example 10]", "c-Abl (Homo sapiens, UniProt P00519)", "%", 57),
]
